meta.source: ChEMBL document CHEMBL4513216

Test: Toxicity liver stage against HepG2, at 10uM
Format: cell-based
Set-up: test concentration 10 uM, cell line HepG2-A16-CD81EGFP
Details: human, HepG2-A16-CD81EGFP cells; read-out: INHIBITION
Exercise: state measured cytotoxicity at 10 µM for each of the compounds provided.
Write the number in % without appending the unit.

**Query** What measured cytotoxicity at 10 µM goes with COc1ccccc1CN1CCC(c2nccc(C)n2)C1 (stereo unspecified) ?
**Result** 3.44

**Query** // next record CC(C)(C)c1n[nH]cc1CNC1CCC(C(F)(F)F)CC1 (stereo unspecified)
**Result** 4.25

**Query** // next record CNC(=O)CCc1cc(C)nc(C2CCN(CC(=O)N(C)C)CC2)c1
**Result** 2.9

**Query** // next record CC(O)C1CCN(C(=O)CCOc2ccccc2F)CC1 (stereo unspecified)
**Result** -5.63

**Query** // next record O=C1CSC(c2ccc3c(c2)OCO3)c2cnn(C3CCCCC3)c2N1 (stereo unspecified)
**Result** -6.06

**Query** // next record Cc1nc(N)cc(C2CN(C(=O)c3cscn3)CCO2)n1 (stereo unspecified)
**Result** 7.03

----------
Exercise: state measured cytotoxicity at 10 µM for each of the compounds provided.
Test: Toxicity liver stage against HepG2, at 10uM
Format: cell-based
Set-up: test concentration 10 uM, cell line HepG2-A16-CD81EGFP
Settings: human, HepG2-A16-CD81EGFP cells; read-out: INHIBITION
Write the number in % without appending the unit.

**Query** What measured cytotoxicity at 10 µM goes with CN(C)c1cc(N2CCN(c3ccccn3)CC2)ncn1 ?
**Result** -2.71

**Query** // next record Cc1ccccc1OC1CCN(S(=O)(=O)c2c(C)n[nH]c2C)CC1
**Result** 0.0656

**Query** // next record Cn1ncc(NCc2cc(F)cc(F)c2)c(Cl)c1=O
**Result** 6.69

**Query** // next record O=C(NCCc1nc(C2CC2)no1)[C@H]1CNC[C@H](C(=O)N2CCCC2)C1
**Result** -107

**Query** // next record Cc1cc(C)n(-c2cncc(NCCNC(=O)CC3CCCC3)n2)n1
**Result** -5.71

**Query** // next record CN(C)CCN(C(=O)Cc1ccc2c(c1)OCCO2)C1CCN(C)CC1
**Result** 2.16

**Query** // next record O=C(COCC1CC1)Nc1ncccc1O
**Result** 11

**Query** // next record CCC(C)(C)NC(=O)c1ccc(NC(=O)NCc2cc(C)on2)cc1
**Result** -1.84

**Query** // next record CC1(C)CC(n2cc3nc(N)[nH]cc-3c2=O)CC(C)(C)N1
**Result** -12.8

**Query** // next record CN(C)S(=O)(=O)N1CCC2(CC1)CC(Oc1ccccn1)CO2 (stereo not drawn)
**Result** -133

**Query** // next record O=C(Cc1cn2ccsc2n1)N1CCCC(n2cncn2)C1 (stereo not drawn)
**Result** -5.97

**Query** // next record COc1c(C2CCCN2C(=O)c2cscn2)c(C)nn1C (stereo not drawn)
**Result** 5.77

**Query** // next record CCCN1CCN(c2nc(N)nc3c2nc(C)n3C)CC1
**Result** -5.15

**Query** // next record Cc1cc2n(n1)CC(CNCc1ccc(OCC3CC3)nc1)CN2 (stereo not drawn)
**Result** -8.42

**Query** // next record CCc1cnc(N)nc1NCc1ccc(OC)cc1OC
**Result** 14.7

**Query** // next record COc1ccc(-n2ncc(C(C)NC3CCOCC3)c2C)cc1 (stereo not drawn)
**Result** 2.77

**Query** // next record O=C(NCC1CC1)C1CN(c2ncccn2)Cc2ccnn2C1 (stereo not drawn)
**Result** 0.705

**Query** // next record Cc1cc(C(C)C(=O)N2CCCN(Cc3cscn3)CC2)c(C)o1 (stereo not drawn)
**Result** -1.58

**Query** // next record Cc1ccc(CN2CCC(c3nnc(CN4CCCCC4)n3C)CC2)o1
**Result** -5.1

**Query** // next record Cc1nc2ccc(C(=O)N3C[C@@H](O)[C@H](N4CCOCC4)C3)cc2[nH]1
**Result** -5.81

**Query** // next record COCCN1CCCn2cnc(CNC(=O)N(C)C)c2C1
**Result** 4.47

**Query** // next record CN(CCCOc1ccccc1Cl)C(=O)CN1C[C@H]2CC[C@@H](CC1=O)N2
**Result** -11.9

**Query** // next record CCc1nc(CC2CN(c3ncnc4sc(C)c(C)c34)CCO2)no1 (stereo not drawn)
**Result** 11.9

**Query** // next record O=C(Nc1nncs1)NC1CCc2ccccc21 (stereo not drawn)
**Result** -10

**Query** // next record Cc1noc([C@@H]2C[C@H]3OCC[C@H]3N(C(C)C)C2)n1
**Result** -125

**Query** // next record COC(=O)c1ccoc1CN(C)CC(=O)NC1CC1
**Result** -1.96

**Query** // next record CC(C)(C)Cc1nnc(NCc2ccsc2)o1
**Result** -5.36

**Query** // next record CN(Cc1ccccc1)C(=O)CCS(=O)(=O)c1ccc2c(c1)OCCO2
**Result** -7.08

**Query** // next record COCc1nccc(C2CCCN(Cc3ccccc3C#N)C2)n1 (stereo not drawn)
**Result** 6.05

**Query** // next record O=C(c1ccncc1)N1CCC2(CC1)CC(Oc1cccnc1)CO2 (stereo not drawn)
**Result** -3.66

**Query** // next record COc1ccc(CN(C)[C@@H]2CN(C(=O)c3cccn3C)C[C@H]2O)cc1
**Result** -21.5

**Query** // next record COCC(=O)N1C[C@@H](OCc2ccncc2)[C@@H]2OCCC[C@@H]21
**Result** -0.182

**Query** // next record Cn1ccc(C(=O)N2CCN(CCc3ccccc3)CC2)cc1=O
**Result** 5.8

**Query** // next record CCc1c(C)sc2nc3n(CCN(C)C)nc(SC)n3c(=O)c12
**Result** 2.26

**Query** // next record COc1ccc(CC(=O)NC2(C#N)CCOCC2)c(Cl)c1
**Result** -6.48

**Query** // next record Cc1cc2nc(SCC(=O)N3CCCC3)n(C(C)C)c(=O)c2[nH]1
**Result** -7.53

**Query** // next record CC(c1ccc(Cl)cc1)N1CCN(CCS(C)(=O)=O)CC1 (stereo not drawn)
**Result** -20.3

**Query** // next record CCCc1nccn1-c1ccc(C(O)CN2CCOCC2)cc1 (stereo not drawn)
**Result** 3.43

**Query** // next record Cc1cc(C(=O)NC2CCN(CC(N)=O)CC2)nn1C(C)(C)C
**Result** -5.22

**Query** // next record CN1C(=O)CC(c2ccccc2)C12CCN(CC1CCOCC1)CC2 (stereo not drawn)
**Result** 1.02

**Query** // next record CO[C@@H]1CO[C@@]2(CCCN(C(=O)C3CC=CC3)C2)C1
**Result** -105

**Query** // next record CCS(=O)(=O)N(C)C1CCN(C(=O)c2cccc(Cl)c2)CC1
**Result** -13.7

**Query** // next record FC(F)COc1ccccc1NCc1nnsc1Cl
**Result** -2.63

**Query** // next record CN(C)C1(CNC(=O)C2CCCN2Cc2ccc(F)cc2)CCOCC1 (stereo not drawn)
**Result** 3.25

**Query** // next record c1csc(SCC2CN=C(N3CCOCC3)S2)c1 (stereo not drawn)
**Result** 10.3

**Query** // next record O=C(NCCOCC1CC1)Nc1ccc(F)cc1
**Result** 9.28

**Query** // next record NC(=O)COc1cccc(Cn2cccn2)c1
**Result** -1.13

**Query** // next record CNC(=O)CN1CCC(NC2CSCCc3ccccc32)CC1 (stereo not drawn)
**Result** -4.28
